# system under test: 3-hydroxyacyl-CoA dehydrogenase type-2 (Homo sapiens)
# test description: qHTS Assay for Inhibitors of HADH2 (Hydroxyacyl-Coenzyme A Dehydrogenase, Type II); note: nearly all actives have a fitted effect of over 60% in size; for activity change, negative = inhibition: % is set by controls: 0 for no effect and ±100 for the full control effect
# cond: recombinant HADH2, NADH fluorescence, beta-hydroxybutyryl-CoA; series mostly up to 57.1 µM
The whole screen tested about 73,000 compounds, of which about 2,500 (3.4%) were called active. Not shown: some 7% with an inconclusive outcome. The sample holds actives, similar compounds and a random draw of the others, so the mix is not that of the screen.
Catalogue of molecules with associated activity change, negative = inhibition

                            record_smiles                        measured
0          O=C1OCCC=C1[C@@H](O)CCc1ccccc1  -6.14% [at 11.4 µM] (inactive)
1  CO/N=C\[C@@H](C)[C@H](OCc1ccccc1)C(C)C   2.33% [at 11.4 µM] (inactive)

Qu. // query activity change, negative = inhibition value for entry CN(C)CCSS(=O)(=O)O
Ans. 9.41% [at 11.4 µM] (inactive)

---

# system under test: 3-hydroxyacyl-CoA dehydrogenase type-2 (Homo sapiens)
# test description: qHTS Assay for Inhibitors of HADH2 (Hydroxyacyl-Coenzyme A Dehydrogenase, Type II); note: nearly all actives have a fitted effect of over 60% in size
# cond: recombinant HADH2, NADH fluorescence, beta-hydroxybutyryl-CoA; series mostly up to 57.1 µM
Hit rate of the full screen: of about 73,000 compounds, about 2,500 (3.4%) were called active. Inconclusive results (about 7%) are left out. Calls come from the whole dose curve; as a rule, active = well fitted inhibition curve with a large enough effect; inconclusive = small, poorly fitted or top-dose-only effect; inactive = no such curve, though single readings can be large or run the other way. For the sample, actives were picked, then their nearest neighbours and some compounds at random.
Classes to choose from: 1 for active, -1 for inactive

Solved entries (count: 4):
                                   compound                         system_under_test  category
0             CC(C)NC[C@H](O)c1ccc2ccccc2c1  3-hydroxyacyl-CoA dehydrogenase type-2 (Homo sapiens)        -1
1  O=C(Nc1cccc(F)c1)N1CC2(CCN(C(=O)c3csnn3)CC2)C1  3-hydroxyacyl-CoA dehydrogenase type-2 (Homo sapiens)        -1
2        CC/C=C/C/C=C/C/C=C/CCCCCCCC(=O)OCC  3-hydroxyacyl-CoA dehydrogenase type-2 (Homo sapiens)        -1
3  O=C(O)/C(=C/c1c(C(=O)O)[nH]c2cc(Cl)cc(Cl)c12)c1ccccc1  3-hydroxyacyl-CoA dehydrogenase type-2 (Homo sapiens)        -1

Qu. Record request — test call for CC(=O)Oc1cccc(N2C(=O)C3CC=C(Cl)CC3C2=O)c1 (stereo unspecified)
Ans. -1

Qu. Let us now turn to O=C(O)[C@@H](S)[C@H](S)C(=O)O
Ans. 1

---

# system under test: 3-hydroxyacyl-CoA dehydrogenase type-2 (Homo sapiens)
# test description: qHTS Assay for Inhibitors of HADH2 (Hydroxyacyl-Coenzyme A Dehydrogenase, Type II); note: nearly all actives have a fitted effect of over 60% in size
# cond: recombinant HADH2, NADH fluorescence, beta-hydroxybutyryl-CoA; series mostly up to 57.1 µM
# Experimental: Assay Overview: NIH Molecular Libraries Screening Centers Network [MLSCN] NIH Chemical Genomics Center [NCGC] Structural Genomics Consortium [SGC] […] An increase in the fluorescence intensity due to conversion of NAD+ to NADH was used to measure the enzyme activity. Assay Protocol: Buffer: 100 mM Tris-HCl pH 9.0, containing 0.01 % Tween-20. […] The fluorescence intensity difference between the last and the first time points was used to compute reaction progress.
Among all 73,000 compounds or so, about 2,500 (3.4%) were called active. Another 7% or so got no clear call; they are omitted. Calls come from the whole dose curve; as a rule, active = well fitted inhibition curve with a large enough effect; inconclusive = small, poorly fitted or top-dose-only effect; inactive = no such curve, though single readings can be large or run the other way. The full list was thinned out, with actives kept by preference.
Classes to choose from: active, inactive

Solved entries (count: 2):
compound	category
COC(=O)[C@@]1(C)C=C[C@@H](Cc2ccccc2)N1C(C)=O	inactive
CC(=O)Nc1cccc(-c2cnc3ccccc3n2)c1	inactive

Qu. Record request — test call for CC(C)c1ccc2c([Si](C)(C)C)c3c(nc2c1)-c1cccc(=O)n1C3
Ans. inactive
